Biological target: T1, purified recombinant human VEGF165 (human, UniProt P15692 27-191, glycosylated)
T1 construct: mature; Bought from Calbiochem; also called VEGF protein (Calbiochem); homodimeric VEGF protein
T1 sequence (P15692 other isoform, or with tags, fused parts or gaps limits assumed): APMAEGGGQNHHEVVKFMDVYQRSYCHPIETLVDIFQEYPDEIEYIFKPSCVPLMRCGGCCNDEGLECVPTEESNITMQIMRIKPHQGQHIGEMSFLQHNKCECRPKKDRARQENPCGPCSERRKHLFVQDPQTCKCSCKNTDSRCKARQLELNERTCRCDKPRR
Experiment: SPR (BIAcore), purified scFv over VEGF immobilized on CM5 chip, 35 C
Value Type: koff (s⁻¹)
Supply the numeric figure in s⁻¹, leaving out any unit text.

Supply recorded koff for hAB16 (scFv, Single chain format; not shown: HA-His6 tag at C-terminus) scFv: EVQLVQSGGGVVQPGGSLRLSCAASGYTFTNYGMNWIRQAPGKGLEWVGWINTYTGEPTYAADFKRRVTFSLDTSKSTAYLQLNSLRAEDTAVYYCAKYPYYYGRSHWYFDVWGQGTLVTVSSGGGGSGGGGSGGGGSDIVMTQSPSTLSASPGERATITCNASQSIGSYLAWYQQKPGQAPKVLIYGASNLASGVPSRFSGSRSGTDFTLTISSLQPEDFAVYYCQQYNSTPWTFGGGTKLEIK here.
4.7e-05

Return the recorded koff value; entry: hAB39 (scFv, Single chain format; not shown: HA-His6 tag at C-terminus) scFv: EVQLVQSGGGVVQPGGSLRLSCAASGYDFTHFGLNWVRQAPGKGLEWVGWVNTYTGETTYAHEFKRRVTFSLDTSKSTAYLQLNSLRAEDTAVYYCAKYPYYYGRSHWYFDVWGQGTLVTVSSGGGGSGGGGSGGGGSDIVMTQSPSTLSASPGERATITCNASQSIGSYLAWYQQKPGQAPKVLIYGASNLASGVPSRFSGSRSGTDFTLTISSLQPEDFAVYYCQQYNSTPWTFGGGTKLEIK
4.8e-05

Could you please provide reported koff for hAB15 (scFv, Single chain format; not shown: HA-His6 tag at C-terminus) scFv: EVQLVQSGGGVVQPGGSLRLSCAASGYTFTNYGMNWIRQAPGKGLEWVGWINTYTGEPTYAADFKRRVTFSLDTSKSTAYLQLNSLRAEDTAVYYCAKYPYYYGRSHWYFDVWGQGTLVTVSSGGGGSGGGGSGGGGSDIVMTQSPSTLSASPGERATITCHASQSISTYLAWYQQKPGQAPRVLIYGASNLASGVPNRFSGSGSGTDFTLTISSLQPEDFAVYYCQQYNSAPWTFGGGTKVEIK ? Thanks!
8.6e-05

Read the entry hAB36 (scFv, Single chain format; not shown: HA-His6 tag at C-terminus) scFv: EVQLVQSGGGVVQPGGSLRLSCAASGYDLSHYGLNWIRQAPGKGPEWVGWINTYTGEPTYAPDFTRRVTFSLDTSKSTAYLQLNSLRAEDTAVYYCAKYPYYYGRSHWYFDVWGQGTLVTVSSGGGGSGGGGSGGGGSDIVMTQSPSTLSASPGERATITCNASQSIGSYLAWYQQKPGQAPKVLIYGASNLASGVPSRFSGSRSGTDFTLTISSLQPEDFAVYYCQQYNSTPWTFGGGTKLEIK and write its reported koff.
3.7e-05

Report koff for hAB35 (scFv, Single chain format; not shown: HA-His6 tag at C-terminus) scFv: EVQLVQSGGGVVQPGGSLRLSCAASGYDFTHFGLNWIRQAPGKGPEWVGWINTYTGEPTYAQDFKRRVTFSLDTSKSTAYLQLNSLRAEDTAVYYCAKYPYYYGRSHWYFDVWGQGTLVTVSSGGGGSGGGGSGGGGSDIVMTQSPSTLSASPGERATITCNASQSIGSYLAWYQQKPGQAPKVLIYGASNLASGVPSRFSGSRSGTDFTLTISSLQPEDFAVYYCQQYNSTPWTFGGGTKLEIK
6.2e-05

Tell me koff reported for hAB8 (scFv, Single chain format; not shown: HA-His6 tag at C-terminus) scFv: EVQLVQSGGGVVQPGGSLRLSCAASGYTFTNYGMNWIRQAPGKGLEWVGWINTYTGEPTYAADFKRRVTFSLDTSKSTAYLQLNSLRAEDTAVYYCAKYPYYYGRSHWYFDVWGQGTLVTVSSGGGGSGGGGSGGGGSDIQMTQSPSSLSASVGDRVTITCSASQDISNYLNWYQQKPGKAPKVLIYFTSSLHSGVPSRFSGSGSGTDFTLTISSLQPEDFATYYCQQYSTVPWTFGQGTKVEIK
1.7e-05

In one line, give reported koff of the entry hAB38 (scFv, Single chain format; not shown: HA-His6 tag at C-terminus) scFv: EVQLVQSGGGVVQPGGSLRLSCAASGYNFSHFGLNWLRQAPGKGPEWVGWINTYTGEPTYAPEFKRRVTFSLDTSKSTAYLQLNSLRAEDTAVYYCAKYPYYYGRSHWYFDVWGQGTLVTVSSGGGGSGGGGSGGGGSDIVMTQSPSTLSASPGERATITCNASQSIGSYLAWYQQKPGQAPKVLIYGASNLASGVPSRFSGSRSGTDFTLTISSLQPEDFAVYYCQQYNSTPWTFGGGTKLEIK .
4.8e-05

Report koff, nothing else, for this binder: hAB37 (scFv, Single chain format; not shown: HA-His6 tag at C-terminus) scFv: EVQLVQSGGGVVQPGGSLRLSCAASGYNFSHFGLNWLRQAPGKGLEWVGWINTYNGETTYAPDFKRRVTFSLDTSKSTAYLQLNSLRAEDTAVYYCAKYPYYYGRSHWYFDVWGQGTLVTVSSGGGGSGGGGSGGGGSDIVMTQSPSTLSASPGERATITCNASQSIGSYLAWYQQKPGQAPKVLIYGASNLASGVPSRFSGSRSGTDFTLTISSLQPEDFAVYYCQQYNSTPWTFGGGTKLEIK
4.4e-05

Answer with the recorded koff of hAB14 (scFv, Single chain format; not shown: HA-His6 tag at C-terminus) scFv: EVQLVQSGGGVVQPGGSLRLSCAASGYTFTNYGMNWIRQAPGKGLEWVGWINTYTGEPTYAADFKRRVTFSLDTSKSTAYLQLNSLRAEDTAVYYCAKYPYYYGRSHWYFDVWGQGTLVTVSSGGGGSGGGGSGGGGSAIRMTQSPSSVSASVGDTVTIACRASQAIRNDLTWYQQKPGTAPKLLIYGATTLQSGVPSRFSGSGSGTDFTLTISSLQPEDFATYYCQQSSTTPWTFGQGTKVDIK only.
6.2e-05

Supply recorded koff for hAB7 (scFv, Single chain format; not shown: HA-His6 tag at C-terminus) scFv: EVQLVQSGGGVVQPGGSLRLSCAASGYTFTNYGMNWVRQAPGKGLEWVGWINTYTGEPTYAADFKRRFTFSLDTSKSTAYLQMNSLRAEDTAVYYCAKYPYYYGRSHWYFDVWGQGTLVTVSSGGGGSGGGGSGGGGSDIQMTQSPSSLSASVGDRVTITCSASQDISNYLNWYQQKPGKAPKVLIYFTSSLHSGVPSRFSGSGSGTDFTLTISSLQPEDFATYYCQQYSTVPWTFGQGTKVEIK here.
9e-06

Reference source: patent US20040133357A1
